Molecular target: recombinant human DYRK1A (Homo sapiens, UniProt Q13627)
Construct: SignalChem (tau)
Settings: recombinant DYRK1A and 4R2N tau, 1 mM ATP; read-out: IC50, inhibition of DYRK1A dependent tau phosphorylation at serine 396
measurement_name: IC50 (nM)

INSERT INTO assay_data (molecule, unit_abbreviation, value_observed) VALUES
  ('CCn1c2cc(OC)ccc2c2ccnc(C)c21 [9-ethyl harmine]', 'nM', 400);

----------
Tested on: H4 neuroglioma cell line
Experiment: Viability (toxicity) assay, alamar Blue
Assay type: cell-based
Conditions: read-out: IC50 for viability (toxicity)
Kindly apply the following: Criterion met if IC50 is less than 30 µM, Criterion not met in every other case.

INSERT INTO measurements (molecule, cat) VALUES
  ('c1ccc2c(c1)[nH]c1cnccc12 [norharmane]', 'Criterion not met'),
  ('COc1ccc2c(c1)[nH]c1c(C)nccc12 [harmine]', 'Criterion met'),
  ('COc1ccc2c3c([nH]c2c1)C(C)=NCC3 [harmaline]', 'Criterion not met'),
  ('CCn1c2cc(OC)ccc2c2ccnc(C)c21 [9-ethyl harmine]', 'Criterion met'),
  ('Cc1nccc2c1[nH]c1ccccc12 [harmane]', 'Criterion not met');

Data origin: patent US20150216848A1
